Catalogue of compounds with associated kinase still bound, per cent of control
tested on: EGFR (human), P00533 [747-751 del / S ins]; assay: KINOMEscan competition binding; conditions: compound 10.0 µM
Sequence (P00533 whole entry, looked up, stated change not applied): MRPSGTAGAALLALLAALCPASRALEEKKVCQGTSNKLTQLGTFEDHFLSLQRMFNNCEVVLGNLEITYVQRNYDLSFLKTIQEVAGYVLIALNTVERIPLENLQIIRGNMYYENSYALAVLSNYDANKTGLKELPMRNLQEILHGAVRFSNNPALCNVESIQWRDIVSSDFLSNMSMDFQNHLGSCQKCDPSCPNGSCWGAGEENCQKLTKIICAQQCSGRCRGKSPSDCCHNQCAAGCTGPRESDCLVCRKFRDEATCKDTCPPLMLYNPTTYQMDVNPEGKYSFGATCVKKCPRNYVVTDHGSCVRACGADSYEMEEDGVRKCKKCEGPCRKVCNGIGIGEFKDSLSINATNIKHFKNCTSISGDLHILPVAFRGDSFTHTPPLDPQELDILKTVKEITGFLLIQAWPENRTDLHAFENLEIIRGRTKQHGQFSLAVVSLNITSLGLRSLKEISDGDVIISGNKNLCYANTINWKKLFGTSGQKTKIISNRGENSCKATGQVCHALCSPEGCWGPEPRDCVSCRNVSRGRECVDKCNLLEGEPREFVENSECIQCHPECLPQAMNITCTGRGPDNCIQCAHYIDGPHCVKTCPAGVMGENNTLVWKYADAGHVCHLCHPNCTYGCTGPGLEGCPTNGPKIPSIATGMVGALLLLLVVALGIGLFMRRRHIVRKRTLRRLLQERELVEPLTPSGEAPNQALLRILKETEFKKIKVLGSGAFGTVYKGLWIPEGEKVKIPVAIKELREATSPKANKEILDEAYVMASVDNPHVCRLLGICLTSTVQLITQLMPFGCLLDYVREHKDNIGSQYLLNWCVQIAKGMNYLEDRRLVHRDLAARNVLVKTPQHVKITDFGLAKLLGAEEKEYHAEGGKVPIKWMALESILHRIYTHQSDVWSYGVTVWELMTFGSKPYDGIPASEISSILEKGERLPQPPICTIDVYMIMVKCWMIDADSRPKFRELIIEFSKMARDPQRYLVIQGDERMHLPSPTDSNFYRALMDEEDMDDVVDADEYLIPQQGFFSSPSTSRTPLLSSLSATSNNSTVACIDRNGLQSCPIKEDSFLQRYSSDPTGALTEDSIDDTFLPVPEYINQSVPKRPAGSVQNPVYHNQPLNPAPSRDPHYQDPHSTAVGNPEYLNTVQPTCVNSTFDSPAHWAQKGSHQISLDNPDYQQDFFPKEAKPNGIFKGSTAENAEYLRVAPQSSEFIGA
experimental_endpoint: kinase still bound, per cent of control (%)

>>> value("CS(=O)(=O)Nc1ccc(-c2cncc(/C=C3\\SC(=N)NC3=O)c2)cc1")
24
>>> value("O=C1NC(=O)/C(=C/c2ccc(-c3ccc(F)cc3O)o2)S1")
1.9
>>> value("COc1cc(N2CCN(C)CC2)ccc1Nc1ncc2c(n1)N(C)c1sccc1C(=O)N2C")
66
>>> value("CN1C(=O)c2ccccc2N(C)c2nc(NS(=O)(=O)c3ccc(N)cc3)ncc21")
99
>>> value("Nc1cccc(-c2cc(/C=C3\\SC(=O)NC3=O)c[nH]c2=O)c1")
4.8

* * *

system: ABL1 (human), P00519 [F317I]; test: KINOMEscan competition binding; details: compound 10.0 µM
Sequence (P00519 whole entry F317I, looked up): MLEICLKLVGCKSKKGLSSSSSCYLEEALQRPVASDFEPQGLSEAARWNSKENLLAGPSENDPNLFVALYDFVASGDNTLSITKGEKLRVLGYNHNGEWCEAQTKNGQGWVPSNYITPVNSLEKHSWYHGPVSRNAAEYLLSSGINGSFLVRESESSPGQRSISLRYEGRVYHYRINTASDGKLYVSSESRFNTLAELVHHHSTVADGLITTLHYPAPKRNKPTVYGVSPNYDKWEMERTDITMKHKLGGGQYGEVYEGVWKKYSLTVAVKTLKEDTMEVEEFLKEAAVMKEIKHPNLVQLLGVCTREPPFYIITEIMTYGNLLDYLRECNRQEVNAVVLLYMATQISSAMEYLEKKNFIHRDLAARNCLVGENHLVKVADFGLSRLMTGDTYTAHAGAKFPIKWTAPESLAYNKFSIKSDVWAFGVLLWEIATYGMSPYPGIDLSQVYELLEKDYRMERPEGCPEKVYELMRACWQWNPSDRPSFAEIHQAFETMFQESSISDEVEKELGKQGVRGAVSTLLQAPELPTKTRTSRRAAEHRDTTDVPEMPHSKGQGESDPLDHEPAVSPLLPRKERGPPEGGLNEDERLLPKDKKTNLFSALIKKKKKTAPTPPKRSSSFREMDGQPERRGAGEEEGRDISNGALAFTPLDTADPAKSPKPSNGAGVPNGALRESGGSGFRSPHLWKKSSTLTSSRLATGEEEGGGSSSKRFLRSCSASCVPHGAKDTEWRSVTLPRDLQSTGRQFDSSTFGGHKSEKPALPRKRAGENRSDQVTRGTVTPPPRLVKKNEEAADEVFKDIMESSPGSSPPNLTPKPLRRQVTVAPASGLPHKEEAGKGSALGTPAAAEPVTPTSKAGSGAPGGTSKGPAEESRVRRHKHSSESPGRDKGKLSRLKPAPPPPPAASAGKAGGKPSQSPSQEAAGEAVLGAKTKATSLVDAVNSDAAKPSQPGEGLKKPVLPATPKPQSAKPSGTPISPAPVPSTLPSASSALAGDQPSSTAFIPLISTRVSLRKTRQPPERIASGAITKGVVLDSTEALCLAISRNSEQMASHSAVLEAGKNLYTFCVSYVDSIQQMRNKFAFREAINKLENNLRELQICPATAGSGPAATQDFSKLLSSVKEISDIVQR
Reported values of kinase still bound, per cent of control for individual entries
experimental_endpoint: kinase still bound, per cent of control (%)

>>> value("CC(C)Oc1cc(N2CCN(C)CC2)ccc1Nc1ncc2c(n1)N(C)c1ccccc1C(=O)N2")
26
>>> value("CN1CCN(c2ccc(C(=O)Nc3ncc4c(n3)N(C)c3ccccc3C(=O)N4C)cc2)CC1")
96
>>> value("O=C1NC(=O)/C(=C/c2c[nH]c(=O)c(-c3ccc(N4CCNCC4)nc3)c2)S1")
100
>>> value("COc1cc(N2CCN(C)CC2)ccc1Nc1ncc2c(n1)N(C1CCCC1)C(C)CC(=O)N2 (stereo not given)")
29
>>> value("CN1C(=O)c2ccccc2N(C)c2nc(NS(=O)(=O)c3ccc(N)cc3)ncc21")
100

* * *

target: CDK7 (human); test: KINOMEscan competition binding; settings: compound 10.0 µM
Known kinase still bound, per cent of control of a selection of compounds
experimental_endpoint: kinase still bound, per cent of control (%)

>>> value("Nc1cccc(-c2cc(/C=C3\\SC(=O)NC3=O)c[nH]c2=O)c1")
8.8
>>> value("NS(=O)(=O)c1ccc(-c2ccc(/C=C3\\SC(=O)NC3=O)o2)cc1")
27
>>> value("COc1cc(C(N)=O)ccc1-c1ccc(/C=C2\\SC(=N)NC2=O)o1")
29
>>> value("N=C1NC(=O)/C(=C/c2ccc(-c3cccc4cc[nH]c34)o2)S1")
20
>>> value("CN1C(=O)c2ccccc2N(C)c2nc(NS(=O)(=O)c3ccc(N)cc3)ncc21")
91
>>> value("CS(=O)(=O)Nc1ccc(-c2ccc(/C=C3\\SC(=N)NC3=O)o2)c(O)c1")
0.9
>>> value("COc1cc(N2CCN(C)CC2)ccc1Nc1ncc2c(n1)Nc1ccccc1NC2=O")
100
>>> value("N=C1NC(=O)/C(=C/c2c[nH]c(=O)c(-c3ccc(S(N)(=O)=O)cc3)c2)S1")
26
>>> value("COc1cc(N2CCN(C)CC2)ccc1Nc1ncc2c(n1)N(C)c1sccc1C(=O)N2C")
67
>>> value("N=C1NC(=O)/C(=C/c2ccc(-c3ccccc3O)o2)S1")
1.4

* * *

molecular target: UniProt:Q06418; test: KINOMEscan competition binding; conditions: compound 10.0 µM
Sequence (Q06418 whole entry, looked up): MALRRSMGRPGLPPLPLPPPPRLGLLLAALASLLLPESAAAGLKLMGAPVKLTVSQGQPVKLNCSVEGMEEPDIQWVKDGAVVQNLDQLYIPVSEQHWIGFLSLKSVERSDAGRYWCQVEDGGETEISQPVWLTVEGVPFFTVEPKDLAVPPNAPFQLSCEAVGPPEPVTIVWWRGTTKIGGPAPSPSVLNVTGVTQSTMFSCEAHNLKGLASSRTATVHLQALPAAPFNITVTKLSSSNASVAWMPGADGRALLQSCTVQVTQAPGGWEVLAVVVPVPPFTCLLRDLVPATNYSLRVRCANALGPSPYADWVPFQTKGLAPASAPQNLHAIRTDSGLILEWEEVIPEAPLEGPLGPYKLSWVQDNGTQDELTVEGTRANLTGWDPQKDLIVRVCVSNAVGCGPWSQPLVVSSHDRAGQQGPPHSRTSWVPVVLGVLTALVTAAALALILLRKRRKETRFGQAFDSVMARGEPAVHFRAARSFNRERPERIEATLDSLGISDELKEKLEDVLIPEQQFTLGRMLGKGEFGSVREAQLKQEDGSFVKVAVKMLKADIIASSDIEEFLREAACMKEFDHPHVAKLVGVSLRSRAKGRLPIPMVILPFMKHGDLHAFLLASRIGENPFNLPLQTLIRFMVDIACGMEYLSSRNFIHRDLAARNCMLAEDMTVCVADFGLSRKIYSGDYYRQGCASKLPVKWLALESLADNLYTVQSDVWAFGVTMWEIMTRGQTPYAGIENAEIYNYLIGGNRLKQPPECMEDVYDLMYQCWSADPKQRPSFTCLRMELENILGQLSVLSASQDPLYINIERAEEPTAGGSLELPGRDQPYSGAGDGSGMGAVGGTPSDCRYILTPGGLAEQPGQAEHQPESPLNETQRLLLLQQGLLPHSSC
Below, each entry is listed with its recorded kinase still bound, per cent of control.
experimental_endpoint: kinase still bound, per cent of control (%)

>>> value("CN1C(=O)[C@H]2CCC[C@H]2N(C2CCCC2)c2nc(Nc3ccc(C(N)=O)cc3)ncc21")
31
>>> value("CN1C(=O)c2ccccc2N(C)c2nc(Nc3ccc(N4CCC(O)CC4)cc3)ncc21")
100
>>> value("O=C1NC(=O)/C(=C/c2c[nH]c(=O)c(-c3ccc(N4CCNCC4)nc3)c2)S1")
100
>>> value("COc1cc(N2CCN(C)CC2)ccc1Nc1ncc2c(n1)N(C)c1ccccc1N(C)C2=O")
100
>>> value("CN1C(=O)c2ccccc2N(C)c2nc(NS(=O)(=O)c3ccc(N)cc3)ncc21")
100
